system: HNE (human neutrophil elastase) (Homo sapiens, UniProt P08246)
Construct: purchased Calbiochem
Sequence (P08246 30-267): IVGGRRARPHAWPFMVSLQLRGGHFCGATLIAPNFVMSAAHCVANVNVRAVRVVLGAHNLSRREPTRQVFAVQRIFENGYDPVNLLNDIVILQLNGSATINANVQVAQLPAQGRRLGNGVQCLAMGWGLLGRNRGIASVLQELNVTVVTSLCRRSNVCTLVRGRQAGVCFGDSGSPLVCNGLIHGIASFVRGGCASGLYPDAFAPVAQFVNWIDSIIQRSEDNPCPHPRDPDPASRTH
assay_explanation: Persistence of HNE inhibition over extended period of time (16 h)
Assay type: biochemical
experimental_setup: monitored during 16 h in the presence of 10 μM inhibitor
Each entry gets not satisfied if its Remaining HNE activity stays under 9%, and satisfied if its Remaining HNE activity is 9% or above.

Take a look at these entries with their results.
{"compound": "CCOC(=O)c1cn(S(=O)(=O)c2ccc(OC(=O)C(C)(C)C)cc2)c2ccc([N+](=O)[O-])cc12 [Compound 3b]", "system": "HNE (human neutrophil elastase) (Homo sapiens, UniProt P08246)", "group_label": "satisfied"}
{"compound": "CCOC(=O)c1nn(S(=O)(=O)c2ccc(OC(=O)C(C)(C)C)cc2)c2ccccc12 [Compound 3f]", "system": "HNE (human neutrophil elastase) (Homo sapiens, UniProt P08246)", "group_label": "not satisfied"}
{"compound": "CCOC(=O)c1nn(S(=O)(=O)c2ccc(OC(=O)C(C)(C)C)cc2)c2ccc([N+](=O)[O-])cc12 [Compound 3g]", "system": "HNE (human neutrophil elastase) (Homo sapiens, UniProt P08246)", "group_label": "satisfied"}

Problem: Is the recorded value of Remaining HNE activity equal to or greater than 9% for this compound? CC(C)(C)C(=O)Oc1ccc(S(=O)(=O)n2nc(C#N)c3cccnc32)cc1 [Compound 3l]
Result: not satisfied

Problem: Is the recorded value of Remaining HNE activity equal to or greater than 9% for this compound? Cc1cccc(C(=O)Nc2nn(S(=O)(=O)c3ccc(OC(=O)C(C)(C)C)cc3)c3ccccc23)c1 [Compound 4]
Result: not satisfied

Problem: Is the recorded value of Remaining HNE activity equal to or greater than 9% for this compound? CC(C)(C)C(=O)Oc1ccc(S(=O)(=O)n2ncc(=O)c3ccccc32)cc1 [Compound 9a]
Result: not satisfied

Problem: Is the recorded value of Remaining HNE activity equal to or greater than 9% for this compound? CC(C)(C)C(=O)Oc1ccc(S(=O)(=O)n2cc(C#N)c3cccnc32)cc1 [Compound 3i]
Result: not satisfied
